Measured values drawn from the supplement of paper PMC10126150 for this set.

# switch fluorescence ratio per entry
# Test system: ATP;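 also: ATP exposure 15 min at 22 °C before imaging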
# Assay method text: switch fluorescence ratio, 500 uM ATP over buffer (Cy3 cluster intensity, sum of 5 cycles each) (fold (ratio)); higher = stronger signal-on switching upon ATP binding; sequences stand for … in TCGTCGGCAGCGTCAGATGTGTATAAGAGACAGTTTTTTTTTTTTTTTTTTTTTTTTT…TC
# Condition description: aptamer strand: ATP DNA aptamer (quencher-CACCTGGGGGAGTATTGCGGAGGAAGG + anchor), 100 nM annealed; ATP concentration: 500 uM
Please give the numeric answer without any surrounding text.

Answered cases to consult:
{"Chain sequence": "GAAACTATTT", "Target of assay": "ATP", "switch fluorescence ratio": 1.03}
{"Chain sequence": "TAAAAAAGTT", "Target of assay": "ATP", "switch fluorescence ratio": 1.12}
{"Chain sequence": "ATACTTTGGT", "Target of assay": "ATP", "switch fluorescence ratio": 0.994}

What value of switch fluorescence ratio has been recorded for this entry: `TATCGGCAAT`
4.42

`TGCTGTAAGG` ?
1

Then what about the sequence `AGGTGCTTAC` ?
1.04
